Reference for the values: patent US5190961A

Quick list: MIC per entry.
# System: Helicobacter pylori
# ASSAY NAME: Antimicrobial activity against Helicobacter pylori (MIC)
# Type: cell-based, Helicobacter pylori strain NCTC 11916
# SETUP CONDITIONS: NCTC11916, strain NCTC 11916, twofold dilution, 37° C., 3-5 days, O2 about 5%

# COMPOUND, ENDPOINT UNIT, MIC
records = [
    ("O=C(CCCNC(=S)Nc1ccccc1Oc1ccccc1)NCCCOc1cccc(CN2CCCCC2)c1 [Example 17]", "µg/mL", 12.5),
    ("Cc1cc(C)cc(NC(=S)NCCCC(=O)NCCCOc2cccc(CN3CCCCC3)c2)c1 [Example 11]", "µg/mL", 6.25),
    ("N#Cc1cccc(NC(=S)NCCCC(=O)NCCCOc2cccc(CN3CCCCC3)c2)c1 [Example 20]", "µg/mL", 12.5),
    ("O=C(CCCNC(=S)Nc1cccc2ccccc12)NCCCOc1cccc(CN2CCCCC2)c1 [Example 7]", "µg/mL", 6.25),
    ("COc1cccc(NC(=S)NCCCC(=O)NCCCOc2cccc(CN3CCCCC3)c2)c1 [Example 15]", "µg/mL", 6.25),
    ("COCOc1ccccc1NC(=S)NCCCC(=O)NCCCOc1cccc(CN2CCCCC2)c1 [Example 24]", "µg/mL", 12.5),
]
